Provenance of the data: the supplement of paper PMC10567573

B1: FBXO39 (parent)
chain: PSRVHASEVESAVWYVKKFGRYLE

Variants of: B1
Experiment: protein stability index of a GFP-peptide fusion (GPS, HEK-293T) (PSI 1-6); higher = more stable;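 further: lentivirally expressed fusions sorted by FACS into six bins by GFP to DsRed ratio, PSI derived from sequencing read proportions per bin multiplied by bin number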
Settings: c terminus: a fixed tail appended
QUANTITY NAME: protein stability index

VARIANT NAME: E8Y
protein stability index: 3.1
//
VARIANT NAME: P1Q
protein stability index: 3.14
//
VARIANT NAME: L23E
protein stability index: 2.26
//
VARIANT NAME: R3C
protein stability index: 1.88
//
VARIANT NAME: R21Q
protein stability index: 2.09
//
VARIANT NAME: K18I
protein stability index: 2.93

Using the record for V16R , state its measured protein stability index.
3.17

Using the record for A6D , state its measured protein stability index.
2.46

Using the record for R21C , state its measured protein stability index.
1.47

Using the record for K17Q , state its measured protein stability index.
2.27

Using the record for L23A , state its measured protein stability index.
2.59
